System: AAK1;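 further: KINOMEscan kinase panel screen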
CONDITION LABEL: concentration: 1 μM, replicates: in singlicate; n = 1
ENDPOINT NAME: %Inh (%)
Write the value in % as a bare number.

The examples below pair each entry with its known result.
Cc1ccc(Oc2ccc(Nc3ncnc4cc[nH]c34)cc2C)cn1 ... 0
COc1cc(Nc2nccc(N3CCC(NC(=O)C4COc5ccccc5O4)C3)n2)cc(OC)c1OC (stereo not shown) [GSK1379761] ... 66
COC(=O)c1c(-c2ccccc2)c2cc(Br)ccc2c(=O)n1Cc1ccc(NC(=O)CCC(=O)O)cc1 ... 13
CN(C)c1cc(-c2ccc3c(N)n[nH]c3c2)nc(N)n1 [GSK2219329] ... 10
O=C(Nc1n[nH]c2nc(-c3ccccc3)c(Cl)cc12)C1CC1 [SB-734909] ... 28

Pending molecule:
q: Report %Inh for COc1cc2ncn(-c3cc(OCc4ccncc4)c(C(N)=O)s3)c2cc1OC [GSK336313] please.
a: 58
